Give IC50 for every item shown.
- test-target: Recombinant human HSD17B13 (Homo sapiens (Human))
- protocol-details: HSD17B13 rapid-fire mass spectrometry assay (RF/MS assay)
- condition-details: inhibition of HSD17B13; LTB4 10 μM, NAD+ 0.5 mM, RT 3 h; IC50 ranges A-E

Observe how each entry below is paired with its result.
>>> print(df.to_string())
                                   compound    test_result
0  COc1cc(C(=O)O)c(F)cc1NS(=O)(=O)c1csc(-c2ccc(C3=CCC(C)(C)CC3)c(F)c2F)n1  0.1 to 0.5 µM
1  COc1cc(C(=O)O)c(F)cc1NS(=O)(=O)c1coc(-c2ccc(C3=CCC(C)(C)CC3)cc2)n1       < 0.1 µM
2  COc1cc(C(=O)O)c(F)cc1NS(=O)(=O)c1cnc(-c2ccc([C@H]3CC[C@@H](C(F)(F)F)CC3)cc2)s1       < 0.1 µM

// moving on: another record for IC50
I would be grateful if you could share the reported IC50 for "COc1cccc(C#Cc2nc(S(=O)(=O)Nc3cc(F)c(C(=O)O)cc3OC)cs2)c1" . < 0.1 µM

----------
- test-target: Recombinant human HSD17B13 (Homo sapiens (Human))
- protocol-details: HSD17B13 rapid-fire mass spectrometry assay (RF/MS assay)
- condition-details: inhibition of HSD17B13; LTB4 10 μM, NAD+ 0.5 mM, RT 3 h; IC50 ranges A-E
pIC50: −log10 of the molar value.
endpoint: pIC50

Observe how each entry below is paired with its result.
>>> print(df.to_string())
                                   compound  test_result
0  COc1cc(C(=O)O)c(F)cc1NS(=O)(=O)c1csc(-c2ccc(C3=CCC(C(F)(F)F)CC3)c(C)c2F)n1 (stereo not shown)       > 7.00
1  CCCCC[C@H]1CC[C@H](c2ccc(-c3nc(S(=O)(=O)Nc4cc(F)c(C(=O)O)cc4OC)cs3)cc2)CC1       > 7.00
2  COc1cc(C(=O)O)ccc1NS(=O)(=O)c1csc(-c2ccc(C3=CCCCC3)cc2)n1       > 7.00
3  COc1cc(C(=O)O)ccc1NS(=O)(=O)N1Cc2nc(C3=CCC(c4ccccc4)CC3)sc2C1 (stereo not shown)       > 7.00

Give pIC50 for each of the items listed below.
1. COc1cc(C(=O)O)ccc1NS(=O)(=O)c1csc(N2CCN(c3ccccc3)CC2)n1
2. COc1cc(C(=O)O)ccc1NS(=O)(=O)c1csc(-c2ccc(C3CCCCC3)cc2)n1
3. COc1cc(C(=O)O)ccc1NS(=O)(=O)c1cccc(-c2ccc(F)cc2)c1

1. 6.00 to 6.30
2. 6.30 to 7.00
3. 4.00 to 6.00

----------
- test-target: Recombinant human HSD17B13 (Homo sapiens (Human))
- protocol-details: HSD17B13 rapid-fire mass spectrometry assay (RF/MS assay)
- condition-details: inhibition of HSD17B13; LTB4 10 μM, NAD+ 0.5 mM, RT 3 h; IC50 ranges A-E
endpoint: IC50

Observe how each entry below is paired with its result.
In [3]: df
Out[3]:
                                   compound                               test_target        test_result
0  COc1cc(C(=O)O)ccc1NS(=O)(=O)c1ccc(-c2ccc(C3CCCCC3)cc2)cc1  Recombinant human HSD17B13 (Homo sapiens (Human))  1000 to 100000 nM
1  COc1cc(C(=O)O)c(F)cc1NS(=O)(=O)c1csc(-c2ccc(C3CCC(C)(C)CC3)c(OC(F)(F)F)c2)n1  Recombinant human HSD17B13 (Homo sapiens (Human))      100 to 500 nM
2  COc1cc(C(=O)O)c(F)cc1NS(=O)(=O)c1ccn(-c2ccc([C@H]3CC[C@@H](C(C)C)CC3)cc2)n1  Recombinant human HSD17B13 (Homo sapiens (Human))      100 to 500 nM
3  COc1cc(C(=O)O)ccc1NS(=O)(=O)c1csc(C#Cc2ccc(OC(F)(F)F)cc2)n1  Recombinant human HSD17B13 (Homo sapiens (Human))      100 to 500 nM
4  COc1cc(C(=O)O)c(F)cc1NS(=O)(=O)c1ccc(-c2ccc(F)cc2)s1  Recombinant human HSD17B13 (Homo sapiens (Human))           < 100 nM

Give IC50 for each of the items listed below.
1. COc1cc(C(=O)O)c(F)cc1NS(=O)(=O)c1csc(-c2ccc(C3CCC(C)(C)CC3)c(C)c2F)n1
2. O=C(O)c1ccc(NS(=O)(=O)c2csc(N3CCC(F)(F)CC3)n2)cc1

1: < 100 nM; 2: 1000 to 100000 nM

----------
- test-target: Recombinant human HSD17B13 (Homo sapiens (Human), UniProt Q7Z5P4)
- Sequence (Q7Z5P4 20-300): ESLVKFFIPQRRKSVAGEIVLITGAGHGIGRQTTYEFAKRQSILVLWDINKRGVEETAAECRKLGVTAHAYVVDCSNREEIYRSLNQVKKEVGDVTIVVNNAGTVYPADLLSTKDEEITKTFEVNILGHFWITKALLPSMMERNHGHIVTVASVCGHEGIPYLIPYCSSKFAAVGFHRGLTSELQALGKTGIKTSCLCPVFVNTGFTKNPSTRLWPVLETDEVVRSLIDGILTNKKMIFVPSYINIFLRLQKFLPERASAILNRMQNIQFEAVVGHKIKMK
- protocol-details: HSD17B13 rapid-fire mass spectrometry assay (RF/MS assay)
- condition-details: inhibition of HSD17B13; LTB4 10 μM, NAD+ 0.5 mM, RT 3 h; IC50 ranges A-E
pIC50: −log10 of the molar value.
Give pIC50 for every item shown.

Observe how each entry below is paired with its result.
                                   compound  endpoint   test_result
0  COc1cc(C(=O)O)c(F)cc1NS(=O)(=O)c1coc(-c2ccc(C3=CCC(C(F)(F)F)CC3)cc2)n1 (stereo not drawn) [Example 483]     pIC50        > 7.00
1  COc1cc(C(=O)O)c(F)cc1NS(=O)(=O)c1csc(-c2ccc(-c3ccc([C@H]4CC[C@H](C(C)C)CC4)cc3C(F)(F)F)cc2C(F)(F)F)n1 [Example 754]     pIC50  6.30 to 7.00

I would be grateful if you could share the reported pIC50 for COc1cc(C(=O)O)ccc1NS(=O)(=O)c1cnc(-c2ccc(-c3ccc(C(F)(F)C(F)(F)F)cc3)cc2)s1 [Example 714] . 6.30 to 7.00

----------
- test-target: Recombinant human HSD17B13 (Homo sapiens (Human), UniProt Q7Z5P4)
- protocol-details: HSD17B13 rapid-fire mass spectrometry assay (RF/MS assay)
- condition-details: inhibition of HSD17B13; LTB4 10 μM, NAD+ 0.5 mM, RT 3 h; IC50 ranges A-E
endpoint: IC50

                                   compound                               test_target        test_result
0  COc1cc(C(=O)O)ccc1NS(=O)(=O)c1csc(N2CCCCC2c2ccccc2)n1 (stereo not shown)  Recombinant human HSD17B13 (Homo sapiens (Human), UniProt Q7Z5P4)      100 to 500 nM
1  COc1cc(C(=O)O)c(F)cc1NS(=O)(=O)c1csc(-c2ccc(-c3ccc4ncccc4c3)cc2)n1  Recombinant human HSD17B13 (Homo sapiens (Human), UniProt Q7Z5P4)           < 100 nM
2  COc1cc(C(=O)O)c(F)cc1NS(=O)(=O)c1csc(-c2ccc(C3=CCC(C(C)C)CC3)cc2)n1 (stereo not shown)  Recombinant human HSD17B13 (Homo sapiens (Human), UniProt Q7Z5P4)           < 100 nM
3  COc1cc(C(=O)O)ccc1NS(=O)(=O)c1csc(N2CCN(S(=O)(=O)c3ccc(C)cc3)CC2)n1  Recombinant human HSD17B13 (Homo sapiens (Human), UniProt Q7Z5P4)  1000 to 100000 nM
4  COc1cc(C(=O)O)ccc1NS(=O)(=O)c1cnn(-c2ccc(F)cc2)c1C  Recombinant human HSD17B13 (Homo sapiens (Human), UniProt Q7Z5P4)  1000 to 100000 nM

Give IC50 for each of the items listed below.
1. COc1ccccc1C#Cc1nc(S(=O)(=O)Nc2cc(F)c(C(=O)O)cc2OC)cs1
2. COc1cc(C(=O)O)c(F)cc1NS(=O)(=O)c1csc(-c2ccc(C3=CCC(C(F)(F)F)CC3)c(OC(C)C)c2F)n1 (stereo not shown)

1. < 100 nM
2. < 100 nM

----------
Give pIC50 for every item shown.
- test-target: Recombinant human HSD17B13 (Homo sapiens (Human), UniProt Q7Z5P4)
- protocol-details: HSD17B13 rapid-fire mass spectrometry assay (RF/MS assay)
- Assay type: biochemical
- condition-details: inhibition of HSD17B13; LTB4 10 μM, NAD+ 0.5 mM, RT 3 h; IC50 ranges A-E
pIC50: −log10 of the molar value.

Observe how each entry below is paired with its result.
molecule	pIC50
O=C(O)c1cc(O)c(NS(=O)(=O)c2cnc(-c3ccc(F)cc3)s2)cc1F [Example 61]	> 7.00
COc1cc(C(=O)O)c(F)cc1NS(=O)(=O)c1csc(-c2ccc(-c3cc4ccccc4[nH]3)cc2)n1 [Example 637]	6.30 to 7.00
COc1cc(C(=O)O)ccc1NS(=O)(=O)c1csc(C#Cc2ccccc2F)n1 [Example 204]	> 7.00
COc1cc(C(=O)O)ccc1NS(=O)(=O)c1cnc(-c2ccc(F)cc2)s1 [Example 23]	> 7.00
COc1cc(C(=O)O)cnc1NS(=O)(=O)c1cnc(-c2ccc(F)cc2)s1 [Example 85]	6.30 to 7.00
COc1cc(C(=O)O)ccc1NS(=O)(=O)c1csc(C#Cc2cccs2)n1 [Example 218]	> 7.00
COc1cc(C(=O)O)c(F)cc1NS(=O)(=O)c1csc(C2=CCC(C(C)C)CC2)n1 (stereo not drawn) [Example 800]	6.00 to 6.30
COc1cc(C(=O)O)c(F)cc1NS(=O)(=O)c1csc(-c2ccc(-c3ccc(C45CC6C[C@H](C4)C[C@H](C6)C5)cc3)c(OC)c2)n1 [Example 743]	6.30 to 7.00
COc1cc(C(=O)O)c(F)cc1NS(=O)(=O)c1csc(-c2ccc(-c3ccc(C4=CCC(C(C)C)CC4)cc3C(F)(F)F)cc2C(F)(F)F)n1 (stereo not drawn) [Example 742]	6.30 to 7.00
COc1cc(C(=O)O)ccc1NS(=O)(=O)N1CCN(c2ccc(OC(F)(F)F)cc2)C(=O)C1 [Example 317]	4.00 to 6.00

Give pIC50 for each of the items listed below.
1. COc1cc(C(=O)O)c(F)cc1NS(=O)(=O)c1csc(-c2ccc([C@H]3CC[C@H](C(C)C)CC3)c(OC(C)C)c2F)n1 [Example 587]
2. COc1cc(C(=O)O)c(F)cc1NS(=O)(=O)c1csc(-c2ccc(C3=CCC(C)(C)CC3)c(C(F)(F)F)c2)n1 [Example 515]
3. COc1cc(C(=O)O)c(F)cc1NS(=O)(=O)c1csc(-c2ccc(C3CCC(C)(C)CC3)c(OC)c2)n1 [Example 525]
4. COc1cccc(C#Cc2nc(S(=O)(=O)Nc3ccc(C(=O)O)cc3OC)cs2)n1 [Example 244]
5. COc1cc(C(=O)O)c(F)cc1NS(=O)(=O)c1coc(-c2ccc([C@H]3CC[C@@H](C(F)(F)F)CC3)cc2C(F)(F)F)n1 [Example 678]

1. > 7.00
2. > 7.00
3. 6.00 to 6.30
4. 6.00 to 6.30
5. > 7.00
